# System: DU-145 prostate
# assayMethodText: NCI-60 one-dose screen, 48 h (100 = growth as untreated, 0 = no growth, -100 = all killed)
# details: 10 µM unless noted
# Method: Cells are grown in 96 well plates and exposed to the test compound for 48 hours. Compounds are tested at a single concentration, which is 10^-5 M for most compounds. The reported endpoint is percent growth (GI% or GIPRCNT), where numbers from 0 - 100% represent growth inhibition, and numbers from -100% - 0 represent cell death. For example, a value of 40 represents 60% growth inhibition. A value of 0 means no net growth occurred over the course of the experiment. […]
About 83,000 compounds went through this panel and 20% of them were active in at least one assay; those are over-represented in the sample as a whole. The source made the active and inactive calls. How the source made its calls: active means growth percent below 10; inactive means the rest.
quantityName: growth

growth for N#C/C(=C\c1c(-c2ccccc2)[nH]c2ccccc12)C(N)=O is 108% (inactive)

growth for CCCCNCCCCCNc1cc(OC)cc2cccnc12 is 120% (inactive)

growth for Cn1ccc(=O)c(C(=O)Nc2nsc3ccc([N+](=O)[O-])cc23)c1 is 63.2% (inactive)

growth for CCOC(=O)c1ccc(NC(=O)c2nc(-c3cc(OC)c(OC)c(OC)c3)n(-c3ccc(Cl)cc3)n2)cc1 is 102% (inactive)

growth for O=C(NCc1ccc(Cl)cc1Cl)C1CCC(=O)N1c1cccs1 (centres undefined) is 108% (inactive)

growth for CCCOC(=O)Nc1nc2ccc(SCC(C)C)cc2s1 is 57.8% (inactive)

growth for COc1ccc(C(=O)N2c3ccccc3Sc3ccccc32)c(OC)c1 is 9.99% (active)

growth for COc1cc2cc(NCc3cccc(Cl)c3)nc(C)c2cc1OC is 62.8% (inactive)

growth for CCOC(=O)c1c(C(=O)c2cn(C)c3ccc(Br)cc23)c(-c2cn(C)c3ccc(Br)cc23)n(NC(=O)OC(C)(C)C)c1C is 97.9% [100 µM] (inactive)

growth for O=c1[nH]c(-c2ccccc2)nc2sc3cc(O)ccc3c12 is 83.6% (inactive)

growth for CN(C)CCNC(=O)c1cc2c3cc(Cl)ccc3[nH]c2c2ncccc12 is 7.58% (active)

growth for CN(C)CCNC(=O)c1ccc(-c2nc3ccc4[nH]ncc4c3c3c2C2CCC3C2)cc1 (centres undefined) is 20.8% (inactive)

growth for Cn1ccnc1C(=O)/C=C/c1ccc(CC(=O)Nc2cc(C(F)(F)F)cc(C(F)(F)F)c2)cc1 is 73.4% (inactive)

growth for CCOC(=O)C1=C(c2ccccc2)N=C2SC=C(c3ccc(Cl)cc3)N2C1c1ccc(Br)cc1 (centres undefined) is 90.3% (inactive)

growth for Cn1cc(-c2ccc3nc(-c4ccc(CC(=O)ONc5cc(C(C)(C)C)on5)cc4)cnc3c2)cn1 is 35.1% (inactive)

growth for C=CCn1c(SCC(=O)Nc2ccc(C(=O)/C=C/c3ccc(Cl)cc3)cc2)nnc1-c1ccc(Br)cc1 is 75.3% (inactive)

growth for CCCC/C(CC)=N\NS(=O)(=O)c1ccc([N+](=O)[O-])cc1 is 97.2% (inactive)

growth for O=S(=O)(Nc1cc(Cl)ccc1Cl)c1ccc(-c2cnc(C3CC3)o2)cc1 is 70.8% (inactive)

growth for CC1(C)COB(OCC(C)(C)COB2OCC(C)(C)CO2)OC1 is 103% (inactive)

growth for COC(=O)c1c(C)c2n(c1C)C(=O)C(c1ccccc1)=C2 is 97.9% (inactive)

growth for O=C1Nc2ccc(C(=O)O)cc2/C1=N/c1nnc(Sc2ccccc2)s1 is 110% (inactive)

growth for N#CSCC1CC(O)(c2ccccc2)CC(c2ccc(F)cc2)O1 (centres undefined) is -27.8% (active)

growth for C[PH+](c1nc2ccccc2nc1[PH+](C)C(C)(C)C)C(C)(C)C.C[PH+](c1nc2ccccc2nc1[PH+](C)C(C)(C)C)C(C)(C)C.[Au+].[Cl-] (centres undefined) is -99.5% (active)

growth for CCOC(=O)C#Cc1c(C(=O)OCC)nnn1Cc1ccc([N+](=O)[O-])cc1 is 10.4% (inactive)

growth for COc1cc2c(c(OC)c1OC)CCC(c1cccc(NC(=O)c3ccc(Br)cc3)c1)O2 (centres undefined) is 87.9% (inactive)

growth for O=C1/C(=C/c2cn(-c3ccccc3)nc2-c2ccccc2)SC(=S)N1C1CCCCC1 is 106% (inactive)

growth for COc1cccc(CNc2ccc3ncnc(Nc4ccc(F)c(Cl)c4)c3c2)c1 is 54.3% (inactive)

growth for COc1ccc2c(c1)c(-c1nc(-c3c[nH]c4ccncc34)cs1)cn2C is -68% (active)

growth for O=C(O)CCCN1C(=O)/C(=C/c2cn(-c3ccccc3)nc2-c2ccc([N+](=O)[O-])cc2)SC1=S is 58.5% (inactive)

growth for COC(=O)c1cc(N=C2NC(=O)/C(=C/C=C/c3ccccc3)S2)ccc1O is 16.8% (inactive)

growth for N#Cc1c(-c2ccc(Cl)cc2)c(C#N)c2c(C#N)c(N)nn2c1N is 84% (inactive)

growth for C[C@@H](CO)[C@@H]1CCC=C2CC[C@]3(C)[C@H](CC[C@@H]4[C@@]5(C)CCCNC(C)(C)[C@@H]5CC[C@]43C)[C@H]21 is 62.4% (inactive)

growth for COc1ccc(/C=C(\C#N)n2nnc3cc(Cl)ccc32)cc1 is -14.9% (active)

growth for N#Cc1c(-c2ccc(Cl)cc2)nc(NN2C(=O)c3ccccc3C2=O)nc1N1CCOCC1 is 107% (inactive)

growth for COc1cc2c(cc1OCCCN1CCN(CCCOc3cc4c(cc3OC)C(=O)N3CC(F)(F)C[C@H]3C=N4)CC1)N=C[C@@H]1CC(F)(F)CN1C2=O is 16.3% (inactive)

growth for O=C(c1nn(-c2ccccc2)c2c1CC(NCc1ccc(F)cc1)CC2)N1CCCCC1 (centres undefined) is 108% (inactive)

growth for OB1OCc2cc(/C=C/c3cccc(C(F)(F)F)c3)ccc21 is -6.62% (active)

growth for N#Cc1nc(-c2ccc(Cl)cc2)oc1S(=O)(=O)N1CCN(c2ccc(F)cc2)CC1 is 97.3% (inactive)

growth for COc1ccc(CNc2c3ccccc3nc3ccccc23)cc1 is 48% (inactive)

The reported measurements were obtained from PubChem BioAssay (NCI).
